target: Calcium/calmodulin-dependent protein kinase type II subunit delta (Homo sapiens); details: at 0.1 µM;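 note: percent inhibition values are means, taken from the GSK PKIS kinase profiling set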
Reported inhibition values follow for various compounds
A number alone suffices; assume %.

Worked set:
[
  {
    "Compound": "OCc1ccc(-c2nc(-c3ccccn3)c(-c3ccc4c(c3)OCO4)[nH]2)cc1",
    "inhibition, %": 4.96
  },
  {
    "Compound": "CCS(=O)(=O)c1ccc(OC)c(Nc2ncc(-c3cccc(OC)c3)o2)c1",
    "inhibition, %": 1.91
  },
  {
    "Compound": "CC(C)c1ccc2c(c1)NC(=O)/C2=N/Nc1ccc(S(N)(=O)=O)cc1",
    "inhibition, %": -0.56
  },
  {
    "Compound": "O=C1Nc2ccccc2/C1=C/Nc1ccc2[nH]c(=O)[nH]c2c1",
    "inhibition, %": 4.2
  }
]

For the compound shown here, Cc1ccc2c(-c3ccnc(Nc4ccc5c(c4)OCCO5)n3)c(-c3ccc(C(F)(F)F)cc3)nn2n1 , give the reported inhibition.
0.22

Requested field: inhibition. Item: CCn1c(-c2nonc2N)nc2ccc(F)cc21
3.98

Returns the measured inhibition for the input compound. Input: COc1ccc(-c2nn3ncccc3c2-c2ccnc(Nc3cccc(C(F)(F)F)c3)n2)cc1
1.66

Find the recorded inhibition belonging to COc1ccc2ncnc(Nc3ccc(OCc4ccccc4)cc3)c2c1 and report it.
0.77

Sample CCCN1CCCC(c2ccc(Nc3nc(Nc4cc(F)ccc4C(N)=O)c4cc[nH]c4n3)c(OC)c2)C1 (stereo not given) — what was its inhibition?
26.9

Look at this compound and give its reported inhibition. CS(=O)(=O)CCNCc1nc(-c2ccc3ncnc(Nc4ccc(OCc5cccc(C(F)(F)F)c5)cc4)c3c2)cs1
2.93
